# credit: patent US9416129B2

- system_under_test: human autoBACE-2 (Homo sapiens (Human), UniProt Q9Y5Z0)
- Sequence (Q9Y5Z0 63-473 limits assumed): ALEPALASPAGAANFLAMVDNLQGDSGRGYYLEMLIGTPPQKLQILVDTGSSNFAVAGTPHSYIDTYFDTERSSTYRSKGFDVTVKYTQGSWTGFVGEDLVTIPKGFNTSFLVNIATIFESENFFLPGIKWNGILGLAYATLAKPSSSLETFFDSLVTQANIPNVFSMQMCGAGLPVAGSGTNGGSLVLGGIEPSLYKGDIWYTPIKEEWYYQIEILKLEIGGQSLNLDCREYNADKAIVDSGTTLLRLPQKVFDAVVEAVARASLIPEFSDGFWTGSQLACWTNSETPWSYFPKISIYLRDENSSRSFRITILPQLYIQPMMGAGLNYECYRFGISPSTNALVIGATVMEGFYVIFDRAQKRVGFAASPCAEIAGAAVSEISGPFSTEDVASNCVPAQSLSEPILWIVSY
assay_readout: Ki (nM)

{"columns": ["compound", "Ki, nM"],
 "data": [
  ["CN1C(=N)N[C@](C)(c2sc3c(-c4cnc(-n5cccn5)nc4)nccc3c2Cl)CS1(=O)=O", 64]
]}

P = CN1C(=N)N[C@](C)(c2sc3c(-c4ccc(C5CC(=O)N5)cc4)cccc3c2F)CS1(=O)=O (some centres unmarked)
Q = CN1C(=N)N[C@](C)(c2sc(-c3ccc(-c4ncco4)cc3)cc2Cl)CS1(=O)=O
R = CN1C(=N)N[C@](C)(c2sc(-c3cccc(-c4cnco4)c3)cc2Cl)CS1(=O)=O
Q) # rank_down: sort by Ki, max first Give the labels in the order specified.
A) P, Q, R
(P: 1720 nM, Q: 337 nM, R: 2 nM)

P = CN1C(=N)N[C@](C)(c2sc(-c3ccc(-c4ccccn4)cc3)cc2Cl)CS1(=O)=O
Q = CN1C(=N)N[C@](C)(c2sc(-c3cccc(-c4nnco4)c3F)cc2F)CS1(=O)=O
R = CN1C(=N)N[C@](C)(c2sc(-c3cccc(-c4ncco4)c3)cc2Cl)CS1(=O)=O
Q) hey, can you rank those compounds up there by Ki? biggest number first please // format: requested-order list of labels
A) P, Q, R

* * *

# collection of pKi values tested on soluble human BACE1 catalytic domain (Homo sapiens (Human))
# Sequence (P56817 75-416): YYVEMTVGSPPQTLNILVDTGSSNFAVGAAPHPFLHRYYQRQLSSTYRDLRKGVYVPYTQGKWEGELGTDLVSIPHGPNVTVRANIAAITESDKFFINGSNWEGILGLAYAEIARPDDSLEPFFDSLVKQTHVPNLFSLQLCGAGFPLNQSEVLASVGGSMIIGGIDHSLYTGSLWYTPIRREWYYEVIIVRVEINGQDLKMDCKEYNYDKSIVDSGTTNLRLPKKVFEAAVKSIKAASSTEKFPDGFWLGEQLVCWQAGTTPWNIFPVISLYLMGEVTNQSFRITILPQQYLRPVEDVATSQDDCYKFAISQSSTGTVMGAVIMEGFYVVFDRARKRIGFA
pKi: −log10 of the molar value.
assay_readout: pKi

{"columns": ["record_smiles", "pKi"],
 "data": [
  ["Cc1cocc1-c1ccc(-c2nccc3c(Cl)c([C@]4(C)CS(=O)(=O)N(C)C(=N)N4)sc23)c(F)c1", 6.95],
  ["Cc1nnc(-c2cccc(-c3cc(Cl)c([C@]4(C)CS(=O)(=O)N(C)C(=N)N4)s3)c2)o1", 6.89],
  ["CN1C(=N)N[C@](C)(c2sc(-c3ccnc(-n4ccnc4)c3)cc2F)CS1(=O)=O", 6.95]
]}

* * *

pKi tested on human autoBACE-2 (Homo sapiens (Human), UniProt Q9Y5Z0): recorded values
pKi: −log10 of the molar value.
assay_readout: pKi

{"columns": ["record_smiles", "pKi"],
 "data": [
  ["CN1C(=N)N[C@](C)(c2sc(-c3cncc(-c4cnco4)c3)cc2Cl)CS1(=O)=O", 8.05],
  ["CN1C(=N)N[C@](C)(c2sc(-c3ccnc(-c4cncnc4)c3)cc2F)CS1(=O)=O", 6.67],
  ["Cc1occc1-c1ccc(-c2nccc3c(Cl)c([C@]4(C)CS(=O)(=O)N(C)C(=N)N4)sc23)c(F)c1", 7.06],
  ["Cc1cnn(-c2cc(-c3cc(F)c([C@]4(C)CS(=O)(=O)N(C)C(=N)N4)s3)ccn2)c1", 5.60],
  ["CN1C(=N)N[C@](C)(c2sc(-c3ccc(-c4nccs4)cc3)cc2Cl)CS1(=O)=O", 6.76],
  ["CN1C(=N)N[C@](C)(c2cc(-c3cc(F)cc(-c4nnco4)c3)ccc2F)CS1(=O)=O", 6.63],
  ["CN1C(=N)N[C@](C)(c2sc(-c3cccc(-c4nnc(C5CC5)o4)c3)cc2Cl)CS1(=O)=O", 8.66],
  ["CN1C(=N)N[C@](C)(c2sc(-c3cc(-c4nnco4)ccc3F)cc2F)CS1(=O)=O", 8.41],
  ["CN1C(=N)N[C@](C)(c2sc(-c3cccc(-n4ccnc4)n3)cc2Cl)CS1(=O)=O", 7.11],
  ["CN1C(=N)N[C@](C)(c2sc3c(-c4ccc(-c5cc(C(F)(F)F)n[nH]5)cc4)nccc3c2Cl)CS1(=O)=O", 8.17]
]}

A = COc1ccnc(N2CCN(c3nccc4c(Cl)c([C@]5(C)CS(=O)(=O)N(C)C(=N)N5)sc34)CC2)c1
B = CN1C(=N)N[C@](C)(c2sc3c(-c4ccc(-c5cnn(C)c5)cc4F)nccc3c2Cl)CS1(=O)=O
Q) Pick one, A or B : lowest reported pKi. Your answer should be the label of the entry you select.
A) A
(A: 5.90, B: 6.66)

a = CN1C(=N)N[C@](C)(c2sc(-c3cc(F)cc(-c4nnco4)c3)cc2Cl)CS1(=O)=O
b = CN1C(=N)N[C@](C)(c2sc(-c3cc(F)cc(-c4cnco4)c3)cc2Cl)CS1(=O)=O
Q) Two entries are listed, a and b . Which one carries the higher pKi? Indicate your choice by writing its label.
A) a
(a: 9.55, b: 8.32)

* * *

- system_under_test: human autoBACE-2 (Homo sapiens (Human), UniProt Q9Y5Z0)
assay_readout: Ki (nM)

// worked examples, Ki included
{"columns": ["record_smiles", "Ki [nM]"],
 "data": [
  ["CN1C(=N)N[C@](C)(c2sc(-c3cccc(-c4cnco4)c3)cc2F)CS1(=O)=O", 3.7],
  ["Cc1cnn(-c2ccc(-c3nccc4c(Cl)c([C@]5(C)CS(=O)(=O)N(C)C(=N)N5)sc34)c(F)c2)c1", 417],
  ["CN1C(=N)N[C@](C)(c2sc(-c3cncc(-c4ncco4)c3)cc2Cl)CS1(=O)=O", 0.31]
]}

1 = CN1C(=N)N[C@](C)(c2sc(-c3ccc(-n4nccn4)cc3)cc2Cl)CS1(=O)=O
2 = Cc1noc(-c2cc(-c3cc(F)c([C@]4(C)CS(=O)(=O)N(C)C(=N)N4)s3)ccn2)n1
Q) Which value of Ki is smaller, the one for 1 or the one for 2 ? Give the label under which the chosen entry appears.
A) 2
